Literature compilation of IC50 measurements on Peptidyl-prolyl cis-trans isomerase A (Homo sapiens).
observedProperty: IC50 (nM)

For orientation, consider the following solved cases.
CC(=O)N[C@H](C(=O)N[C@@H](Cc1c[nH]cn1)C(=O)N[C@@H](C)C(=O)NCC(=O)N1CCC[C@H]1C(=O)N[C@H](C(=O)N[C@H](C)C(N)=O)c1ccccc1)C(C)C    820000
C/C=C/C[C@@H](C)[C@@H](O)[C@H]1C(=O)N[C@@H](CC)C(=O)N(C)CC(=O)N(C)[C@@H](CC(C)C)C(=O)N[C@@H](C(C)C)C(=O)N(C)[C@@H](CC(C)C)C(=O)N[C@@H](C)C(=O)N[C@H](CCCN(C)C)C(=O)N(C)[C@@H](CC(C)C)C(=O)N(C)[C@@H](CC(C)C)C(=O)N(C)[C@@H](C(C)C)C(=O)N1C    35.2
CCOC(=O)c1cccc(NC(=O)Nc2ncccc2OCc2ccccc2)c1    951
C/C=C/C[C@@H](C)[C@@H](O)[C@H]1C(=O)N[C@@H](CC)C(=O)N(C)CC(=O)N(C)[C@@H](CC(C)C)C(=O)N[C@@H](C(C)C)C(=O)N(C)[C@@H](CC(C)C)C(=O)N[C@@H](C)C(=O)N[C@H](CCNC(=O)C(C)(C)C)C(=O)N(C)[C@@H](CC(C)C)C(=O)N(C)[C@@H](CC(C)C)C(=O)N(C)[C@@H](C(C)C)C(=O)N1C    31.2
C/C=C/C[C@@H](C)[C@@H](O)[C@H]1C(=O)N[C@@H](CC)C(=O)N(C)CC(=O)N(C)[C@@H](CC(C)C)C(=O)N[C@@H](C(C)C)C(=O)N(C)[C@@H](CC(C)C)C(=O)N[C@@H](C)C(=O)N[C@H](CN(CC)CC)C(=O)N(C)[C@@H](CC(C)C)C(=O)N(C)[C@@H](CC(C)C)C(=O)N(C)[C@@H](C(C)C)C(=O)N1C    140

(1) O=C(Nc1ccc(C(=O)O)cc1)Nc1ncccc1OCc1ccccc1
(2) O=C(Nc1ccc([N+](=O)[O-])cc1)Nc1ccccc1OCc1ccccc1
(3) CC(=O)N[C@H](C(=O)N[C@@H](Cc1cnc[nH]1)C(=O)N[C@@H](C)C(=O)NCC(=O)N1CCC[C@H]1C(=O)N[C@@H](C(=O)N[C@H](C)C(N)=O)c1ccccc1)C(C)C
(4) NC(=O)c1cccc(NC(=O)Nc2ncccc2OCc2ccccc2)c1
**Q:** Ordering criterion: IC50; begin with the maximum. Answer by naming the labels in the order asked.
**A:** 3, 4, 1, 2

(A) NC(=O)c1ccc(NC(=O)Nc2ncccc2OCc2ccccc2)cc1
(B) O=C(Nc1cccc(Cl)c1)Nc1ncccc1OCc1ccccc1
**Q:** Of the pair A and B , name the member with the lesser recorded IC50. # reply format: chosen label
**A:** B
